STUDY_TARGET: human CTPS1 (Homo sapiens, UniProt P17812)
Sequence (P17812 whole entry): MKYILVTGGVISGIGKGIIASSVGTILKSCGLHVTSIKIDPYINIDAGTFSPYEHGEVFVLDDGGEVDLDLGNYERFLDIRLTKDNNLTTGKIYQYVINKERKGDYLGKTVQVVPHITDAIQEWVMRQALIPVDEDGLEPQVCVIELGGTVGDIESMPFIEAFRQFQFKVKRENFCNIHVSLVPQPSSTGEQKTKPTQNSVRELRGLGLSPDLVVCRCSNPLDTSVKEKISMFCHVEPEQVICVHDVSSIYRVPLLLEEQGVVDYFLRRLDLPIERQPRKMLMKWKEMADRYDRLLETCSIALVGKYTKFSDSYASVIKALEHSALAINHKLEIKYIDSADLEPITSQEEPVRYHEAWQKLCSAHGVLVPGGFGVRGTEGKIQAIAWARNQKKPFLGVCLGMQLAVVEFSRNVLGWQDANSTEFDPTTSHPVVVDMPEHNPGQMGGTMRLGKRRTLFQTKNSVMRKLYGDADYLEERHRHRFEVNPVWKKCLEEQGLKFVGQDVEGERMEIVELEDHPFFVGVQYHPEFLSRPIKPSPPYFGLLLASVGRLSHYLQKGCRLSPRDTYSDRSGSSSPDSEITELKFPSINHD
ASSAY_PROCEDURE: ADP-Glo assay, human CTPS1 enzyme inhibition
Format: biochemical
PROTOCOL_CONDITIONS: wild-type human CTPS1, 25 nM enzyme; ADP-Glo; read-out: ADP-Glo_WT_hCTPS1—25 nM_IC50 (IC50)
pIC50: −log10 of the molar value.
OUTCOME_MEASURE: pIC50

Sample records with pIC50:
compound="CCOc1cncc(-c2cnc(C(=O)N[C@@H](COC)c3cccc(NS(=O)(=O)C(F)F)c3)s2)n1 [I-293]" outcome_measure=pIC50 observed_measurement="7.60 to 8.30"
compound="CCOc1cncc(-c2cnc(C(=O)N[C@H](c3cccc(NS(=O)(=O)C(F)F)c3)[C@H](C)O)s2)n1 [I-289]" outcome_measure=pIC50 observed_measurement="7.60 to 8.30"
compound="CCOc1cncc(-c2cnc(C(=O)N[C@H](CN3C[C@H]4CC[C@@H]3C4)c3cc(NS(=O)(=O)C4CC4)ccn3)s2)n1 [I-150]" outcome_measure=pIC50 observed_measurement="7.60 to 8.30"
compound="CCOc1cncc(-c2cnc(C(=O)N[C@@H](c3cc(NS(=O)(=O)C4CC4)ccn3)[C@@H](C)O)s2)n1 [I-269]" outcome_measure=pIC50 observed_measurement="≥ 8.30"
compound="CCOc1cncc(-c2cnc(C(=O)N[C@@H](CN3C[C@H]4CC[C@@H]3C4)c3cc(NS(=O)(=O)C4CC4)ccn3)s2)n1 [I-149]" outcome_measure=pIC50 observed_measurement="7.00 to 7.30"

Which pIC50 value belongs to CCOc1cncc(-c2cnc(C(=O)N[C@H](c3cc(NS(=O)(=O)C4CC4)ccn3)[C@@H](C)OC)s2)n1 [I-45] ? 7.60 to 8.30

Which pIC50 value belongs to CCOc1cncc(-c2cnc(C(=O)N[C@H](CN3CCN(C)C(=O)C3)c3cc(NS(=O)(=O)C4CC4)ccn3)s2)n1 [I-148] ? 7.60 to 8.30

Which pIC50 value belongs to CCOc1cncc(-c2cnc(C(=O)N[C@H](c3cc(NS(=O)(=O)C4CC4)ccn3)[C@@H]3COCCO3)s2)n1 [I-74] ? 7.60 to 8.30

Which pIC50 value belongs to C[C@@H](CN1CCCCC1)[C@H](NC(=O)c1ncc(-c2cnn3ccc(Cl)cc23)s1)c1cc(NS(=O)(=O)C2CC2)ccn1 [I-58] ? 7.00 to 7.30

Which pIC50 value belongs to O=C(N[C@H](c1cccc(NS(=O)(=O)C(F)F)c1)C1CCOCC1)c1ncc(-c2cnn3ccc(Cl)cc23)s1 [I-196] ? 7.60 to 8.30

Which pIC50 value belongs to CCOc1cncc(-c2cnc(C(=O)N[C@H](C[C@@H]3CCCCN3C(C)C)c3cc(NS(=O)(=O)C4CC4)ccn3)s2)n1 (single isomer, unassigned) [I-29] ? < 7.00

Which pIC50 value belongs to CCOc1cncc(-c2cnc(C(=O)N[C@H](CCN(C)C3CCCCC3)c3cc(NS(=O)(=O)C4CC4)ccn3)s2)n1 (single isomer, unassigned) [I-14] ? 7.60 to 8.30

Which pIC50 value belongs to CCOc1cncc(-c2cnc(C(=O)N[C@@H](c3cc(NS(=O)(=O)C4CC4)ccn3)[C@@H]3CCN(C4CCCC4)C3)s2)n1 [I-95] ? 7.60 to 8.30

Which pIC50 value belongs to CCOc1cncc(-c2cnc(C(=O)N[C@@H](c3cc(NS(=O)(=O)C4CC4)ccn3)[C@H]3CCN(C4CCCC4)C3)s2)n1 [I-96] ? 7.60 to 8.30
